pIC50: −log10 of the molar value.
Reported values: pIC50 for Human β2 adrenoceptor (Homo sapiens), one per item.

These recorded examples may help you get a feel for the data.
O=C(c1cncc(-c2cccc([C@](O)(C(=O)OCC3CCN(Cc4ccccc4)CC3)c3ccccc3)c2)n1)N1CCC(CNC[C@H](O)c2ccc(O)c3[nH]c(=O)ccc23)CC1 [Compound 6A] | 8.52 to 9.52
O=C(NCc1ccc(-c2cccc([C@](O)(C(=O)OCC3CCN(Cc4ccccc4)CC3)c3ccccc3)c2)o1)c1ccc(CNC[C@H](O)c2ccc(O)c3[nH]c(=O)ccc23)cc1 [Compound 3A] | 8.52 to 9.52
COc1cc(C(=O)NCc2cnc(-c3cccc([C@](O)(C(=O)OCC4CCN(Cc5ccccc5)CC4)c4ccccc4)c3)cn2)ccc1CNC[C@H](O)c1ccc(O)c2[nH]c(=O)ccc12 [Compound 4H] | > 9.52
O=C(NCc1ccc(-c2cccc([C@](O)(C(=O)OCC3CCN(Cc4ccccc4)CC3)c3ccccc3)c2)s1)c1ccc(CNC[C@H](O)c2ccc(O)c3[nH]c(=O)ccc23)cc1 [Compound 1A] | > 9.52

Record Cc1cc(C(=O)NCc2ccc(-c3cccc([C@](O)(C(=O)OCC4CCN(Cc5ccccc5)CC4)c4ccccc4)c3)s2)c(F)cc1CNC[C@H](O)c1ccc(O)c2[nH]c(=O)ccc12 [Compound 1O] . Reported pIC50: > 9.52

* * *

Reported values: pIC50 for UniProtKB P07550, one per item.
pIC50: −log10 of the molar value.

These recorded examples may help you get a feel for the data.
O=C(NCc1ccc(-c2cccc([C@](O)(C(=O)OCC3CCN(Cc4ccccc4)CC3)c3ccccc3)c2)s1)c1ccc(CNC[C@H](O)c2ccc(O)c3[nH]c(=O)ccc23)cn1 | > 9.52
O=C(NCc1ccc(-c2cccc([C@](O)(C(=O)OC3CCC4(CC3)CCN(Cc3ccccc3)CC4)c3ccccc3)c2)s1)c1ccc(CNC[C@H](O)c2ccc(O)c3[nH]c(=O)ccc23)cc1 | > 9.52

Record `O=C(NCc1ccc(CCNC[C@H](O)c2ccc(O)c3[nH]c(=O)ccc23)cc1)c1ccc(-c2ccc([C@](O)(C(=O)OCC3CCN(Cc4ccccc4)CC3)c3ccccc3)cc2)s1` . Reported pIC50: 8.52 to 9.52

Record `O=C(c1ccc(CNC[C@H](O)c2ccc(O)c3[nH]c(=O)ccc23)cc1)N1CC=C(c2cccc([C@](O)(C(=O)OCC3CCN(Cc4ccccc4)CC3)c3ccccc3)c2)C1` . Reported pIC50: > 9.52

Record `O=C(NCC(=O)N1CCC(c2cccc([C@](O)(C(=O)OCC3CCN(Cc4ccccc4)CC3)c3ccccc3)c2)CC1)c1ccc(CCNC[C@H](O)c2ccc(O)c3[nH]c(=O)ccc23)cc1` . Reported pIC50: > 9.52

Record `O=C(Cc1ccc(CNC[C@H](O)c2ccc(O)c3[nH]c(=O)ccc23)cc1)NCc1ccc(-c2cccc([C@](O)(C(=O)OCC3CCN(Cc4ccccc4)CC3)c3ccccc3)c2)s1` . Reported pIC50: 8.52 to 9.52

Record `COc1cc(CNC[C@H](O)c2ccc(O)c3[nH]c(=O)ccc23)ccc1C(=O)N1CCC(c2cccc([C@](O)(C(=O)OCC3CCN(Cc4ccccc4)CC3)c3ccccc3)c2)CC1` . Reported pIC50: < 8.52

Record `O=C(c1ccc(-c2cccc([C@](O)(C(=O)OCC3CCN(Cc4ccccc4)CC3)c3ccccc3)c2)cn1)N1CCC(CNC[C@H](O)c2ccc(O)c3[nH]c(=O)ccc23)CC1` . Reported pIC50: > 9.52

Record `O=C(c1ccc(CNC[C@H](O)c2ccc(O)c3[nH]c(=O)ccc23)cc1)N1CC=C(c2cccc([C@](O)(C(=O)OCC3CCN(Cc4ccccc4)CC3)c3ccccc3)c2)CC1` . Reported pIC50: > 9.52

Record `O=C(NCc1ccc(-c2cccc([C@](O)(C(=O)OCC3CCN(Cc4ccccc4)CC3)c3ccccc3)c2)s1)c1ccc(CNC[C@H](O)c2ccc(O)c3[nH]c(=O)ccc23)nc1` . Reported pIC50: > 9.52

* * *

Reported values: IC50 for Human M3 receptor (Homo sapiens), one per item.

These recorded examples may help you get a feel for the data.
COc1cccc(CN2CCC(COC(=O)[C@](O)(c3ccccc3)c3cccc(-c4ccc(CNC(=O)c5ccc(CNC[C@H](O)c6ccc(O)c7[nH]c(=O)ccc67)cc5)s4)c3)CC2)c1 | > 3 nM
O=C(c1ccc(CNC[C@H](O)c2ccc(O)c3[nH]c(=O)ccc23)cc1)N1CC=C(c2cccc([C@](O)(C(=O)OCC3CCN(Cc4ccccc4)CC3)c3ccccc3)c2)C1 | 0.3 to 3 nM
O=C(c1cccc(-c2cccc([C@](O)(C(=O)OCC3CCN(Cc4ccccc4)CC3)c3ccccc3)c2)n1)N1CCC(CNC[C@H](O)c2ccc(O)c3[nH]c(=O)ccc23)CC1 | 0.3 to 3 nM
O=C(c1ccc(-c2cccc([C@](O)(C(=O)OCC3CCN(Cc4ccccc4)CC3)c3ccccc3)c2)cn1)N1CCC(CNC[C@H](O)c2ccc(O)c3[nH]c(=O)ccc23)CC1 | < 0.3 nM

Now consider a different compound.
Here O=C(c1ccc2c(c1)CC(NC[C@H](O)c1ccc(O)c3[nH]c(=O)ccc13)C2)N1CCC(c2cccc([C@](O)(C(=O)OCC3CCN(Cc4ccccc4)CC3)c3ccccc3)c2)CC1 (some centres unmarked) was tested on Human M3 receptor (Homo sapiens), and its IC50 came to < 0.3 nM

* * *

Reported values: pIC50 for Human β2 adrenoceptor (Homo sapiens), one per item.
pIC50: −log10 of the molar value.

These recorded examples may help you get a feel for the data.
COc1cc(C(=O)NCc2ccc(-c3cccc([C@](O)(C(=O)OCC4CCN(Cc5ccccc5)CC4)c4ccccc4)c3)s2)ccc1CNC[C@H](O)c1ccc(O)c2[nH]c(=O)ccc12 | > 9.52
O=C(NCc1ccnc(-c2cccc([C@](O)(C(=O)OCC3CCN(Cc4ccccc4)CC3)c3ccccc3)c2)n1)c1ccc(CNC[C@H](O)c2ccc(O)c3[nH]c(=O)ccc23)cc1 | 8.52 to 9.52

Now consider a different compound.
Here `O=C(NCc1ncc(-c2cccc([C@](O)(C(=O)OCC3CCN(Cc4ccccc4)CC3)c3ccccc3)c2)cn1)c1ccc(CNC[C@H](O)c2ccc(O)c3[nH]c(=O)ccc23)cc1` was tested on Human β2 adrenoceptor (Homo sapiens), and its pIC50 came to 8.52 to 9.52

* * *

Reported values: pIC50 for Human M3 receptor (Homo sapiens, UniProt P20309), one per item.
pIC50: −log10 of the molar value.

These recorded examples may help you get a feel for the data.
O=C(NCc1ccc(-c2cccc([C@](O)(C(=O)OCC3CCN(Cc4ccccc4)CC3)c3ccccc3)c2)s1)c1ccc(CNC[C@H](O)c2ccc(O)c3[nH]c(=O)ccc23)cc1 | 8.52 to 9.52
O=C(NCc1ccc(-c2cccc([C@](O)(C(=O)OC[C@@H]3[C@H]4CN(Cc5ccccc5)C[C@@H]34)c3ccccc3)c2)s1)c1ccc(CNC[C@H](O)c2ccc(O)c3[nH]c(=O)ccc23)cc1 | 8.52 to 9.52
O=C(NCc1cnc(-c2ccc([C@](O)(C(=O)OCC3CCN(Cc4ccccc4)CC3)c3ccccc3)cc2)s1)c1ccc(CNC[C@H](O)c2ccc(O)c3[nH]c(=O)ccc23)cc1 [Compound 15C] | 8.52 to 9.52

Record `COc1c(CNC[C@H](O)c2ccc(O)c3[nH]c(=O)ccc23)ccc(C(=O)N2CC=C(c3cccc([C@](O)(C(=O)OCC4CCN(Cc5ccccc5)CC4)c4ccccc4)c3)CC2)c1F` . Reported pIC50: 8.52 to 9.52

Record `O=C(NCc1ccc(-c2ccc([C@](O)(C(=O)OCC3CCN(Cc4ccccc4)CC3)c3ccccc3)cc2)s1)c1ccc(CNC[C@H](O)c2ccc(O)c3[nH]c(=O)ccc23)cc1` . Reported pIC50: 8.52 to 9.52

Record `COc1cc(C(=O)NCc2ccc(-c3cccc([C@](O)(C(=O)OCC4CCN(Cc5ccccc5)CC4)c4ccccc4)c3)s2)c(Cl)cc1CNC[C@H](O)c1ccc(O)c2[nH]c(=O)ccc12` . Reported pIC50: 8.52 to 9.52

* * *

- study-system: Human β2 adrenoceptor (Homo sapiens, UniProt P07550)
- Sequence (P07550 whole entry): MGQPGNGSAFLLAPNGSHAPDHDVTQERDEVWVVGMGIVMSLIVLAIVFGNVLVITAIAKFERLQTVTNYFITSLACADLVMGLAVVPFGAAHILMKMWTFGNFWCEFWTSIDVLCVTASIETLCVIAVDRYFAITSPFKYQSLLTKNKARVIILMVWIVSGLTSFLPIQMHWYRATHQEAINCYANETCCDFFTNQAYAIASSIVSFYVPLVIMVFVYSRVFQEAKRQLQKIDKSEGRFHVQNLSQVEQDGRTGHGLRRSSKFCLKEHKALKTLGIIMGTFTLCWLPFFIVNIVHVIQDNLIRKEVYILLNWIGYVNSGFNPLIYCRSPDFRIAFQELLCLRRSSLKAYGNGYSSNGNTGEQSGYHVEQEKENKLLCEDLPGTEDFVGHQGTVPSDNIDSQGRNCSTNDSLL
Each entry below lists one item and its recorded IC50 value.

These recorded examples may help you get a feel for the data.
COc1cc(CNC[C@H](O)c2ccc(O)c3[nH]c(=O)ccc23)ccc1C(=O)NCc1ccc(-c2cccc([C@](O)(C(=O)OCC3CCN(Cc4ccccc4)CC3)c3ccccc3)c2)s1 [Compound 1C] | 0.3 to 3 nM
COc1cc(CNC[C@H](O)c2ccc(O)c3[nH]c(=O)ccc23)ccc1C(=O)N1CC=C(c2cccc([C@](O)(C(=O)OCC3CCN(Cc4ccccc4)CC3)c3ccccc3)c2)CC1 [Compound 3E] | < 0.3 nM
COc1cc(C(=O)N2CC=C(c3cccc([C@](O)(C(=O)OCC4CCN(Cc5ccccc5)CC4)c4ccccc4)c3)C2)ccc1CNC[C@H](O)c1ccc(O)c2[nH]c(=O)ccc12 [Compound 3J] | < 0.3 nM
C[C@H](NC(=O)c1ccc(CNC[C@H](O)c2ccc(O)c3[nH]c(=O)ccc23)cc1)C(=O)N1CC=C(c2cccc([C@](O)(C(=O)OCC3CCN(Cc4ccccc4)CC3)c3ccccc3)c2)CC1 [Compound 8C] | 0.3 to 3 nM
O=C(NCc1cnc(-c2cccc([C@](O)(C(=O)OCC3CCN(Cc4ccccc4)CC3)c3ccccc3)c2)s1)c1ccc(CNC[C@H](O)c2ccc(O)c3[nH]c(=O)ccc23)cc1 [Compound 5B] | < 0.3 nM
O=C(NCc1ccc(-c2cccc([C@](O)(C(=O)OCC3CCN(Cc4ccccc4)CC3)c3ccccc3)c2)s1)c1ccc(CNC[C@H](O)c2ccc(O)c3[nH]c(=O)ccc23)c(Cl)c1 [Compound 1R] | < 0.3 nM
O=C(NCc1ccc(-c2cccc([C@](O)(C(=O)OC[C@@H]3[C@H]4CN(Cc5ccccc5)C[C@@H]34)c3ccccc3)c2)s1)c1ccc(CNC[C@H](O)c2ccc(O)c3[nH]c(=O)ccc23)cc1 [Compound 2D] | 0.3 to 3 nM
COc1cc(C(=O)N2CCC=C(c3cccc([C@](O)(C(=O)OCC4CCN(Cc5ccccc5)CC4)c4ccccc4)c3)C2)ccc1CNC[C@H](O)c1ccc(O)c2[nH]c(=O)ccc12 [Compound 3H] | < 0.3 nM

Now consider a different compound.
Record CN1CCC(OC(=O)[C@](O)(c2ccccc2)c2cccc(-c3ccc(CNC(=O)c4ccc(CNC[C@H](O)c5ccc(O)c6[nH]c(=O)ccc56)cc4)s3)c2)CC1 [Compound 2] . Reported IC50: < 0.3 nM
